- measured-on: T1, Cynomolgus monkey Serum Albumin (Cynomolgus monkey, UniProt A2V9Z4 25-608)
- T1 construct: mature; Purified in house; also called CSA; cyno serum albumin
- protocol-text: SPR (BIAcore), purified dAb
pKd: −log10 of the molar value.
# pKd annotations

binder	pKd
DOM7h-14-74 (other, pDOM5 myc tag not included) VL: DIQMTQSPSSLSASVGDRVTITCRASQWIGSQLSWYQQKPGKAPKLLIMWRSSLQSGVPSRFSGSGSGTDFTLTISSLQPEDFATYYCAQGLRHPKTYGKGTKVENKW	8.20
DOM7h-14-56 (other, pDOM5 myc tag not included) VL: DIQMTQSPSSLSASVGDRVTITCRASQWIGSQLSWYQQKPGKAPMLLIMWSSSLQSGVPSRFSGSGSGTDFTLTISSLQPEDFATYYCAQGLRHPKTFGQGTKVEIKW	7.73
DOM7h-14-76 (other, pDOM5 myc tag not included) VL: DIQMTQSPSSLSASVGDRVTITCRASQWIGSQLSWYQQKPGKAPKLLIMWRSSLQSGVPSRFSGSGSGTDFTLTISSLQPEDFATYYCAQGLKHPKTYGQGTKVEIKW	7.70
DOM7h-14-123 (other) VL: DIQMTQSPSSLSASVGDRVTITCRASQWIGSQLSWYQQKPGKAPKLLIMWRSSLQSGVPSRFSGSGSGTDFTLTISSLQPEDFATYYCAQGLRHPKTYGKGTKVENKR	8.10
DOM7h-14-100 (other, pDOM5 myc tag not included) VL: DIQMTQSPSSLSASVGDRVTITCRASQWIGSQLSWYQQKPGKAPKLLIMWRSSLQSGVPSRFSGSGSGTDFTLTISSLQPEDFATYYCAQGLRHPKTYGQGTKVENKW	8.19
DOM7h-14-101 (other, pDOM5 myc tag not included) VL: DIQMTQSPSSLSASVGDRVTITCRASQWIGSQLSWYQQKPGKAPKLLIMWRSALQNGVPSRFSGSGSGTDFTLTISSLQPEDFATYYCAQGLRHPKTFGQGTKVEIKW	7.94
DOM7h-14-109 (other, pDOM5 myc tag not included) VL: DIQMTQSPSSLFASVGDRVTITCRASQWIGSQLSWYQQKPGKAPKLLIMWRSSLQSGVPSRFSGSGSGTDFTLTISSLQPEDFATYYCAQGLRKPKTFGQGTKVKIKW	7.75
DOM7h-14-116 (other, pDOM5 myc tag not included) VL: DIQMTQSPSSLSASVGDRVTITCRASQWIGSQLSWYQQKPGKAPKLLIMWRSALQSGVPSRFSGSGSGTDFTLTISSLQPEDFATYYCAQGLRYPKTFGQGTKVEIKW	7.64
